assay: Plasticizer migration rate to PE (HG/T 4458-2012); type: physicochemical; conditions: PVC composite with 30 parts plasticizer; 50°C for 48 h
Counter-ions that a name gives are not always drawn.
property measured: Migration rate to PE

Recorded results for 3 molecules are shown here.
Query: Which Migration rate to PE value belongs to CCCCCCCCOC(=O)c1ccccc1C(=O)OCCCCCCCC [Dioctyl Phthalate, dioctyl phthalate] ?
Result: 0.83%

Query: # get_value(readout='Migration rate to PE', item= CC(C)CCCCCOC(=O)C=C(CC(=O)OCCCCCC(C)C)C(=O)OCCCCCC(C)C [Triisooctyl aconitate, triisooctyl aconitate] )
Result: 0.13%

Query: Suppose we examine the molecule CCCCOC(=O)C=C(CC(=O)OCCCC)C(=O)OCCCC [Tributyl aconitate, tributyl aconitate] ; what Migration rate to PE value has been reported?
Result: 1.26%

Please turn your attention to the following entry.
Query: So what's the measured Migration rate to PE for this one? CCCCOC(=O)CC(O)(CC(=O)OCCCC)C(=O)OCCCC [Tributyl citrate, tributyl citrate]
Result: 2.12%

----------
assay: Tensile properties (GB/T 1040-2006): tensile modulus at 100%, elongation at break, elastic modulus; format: physicochemical; conditions: PVC plastic with 35 parts plasticizer; 50 mm/min, 25°C
Recorded Tensile modulus at 100%, one value per entry.

Some entries whose results are on file:
Query: State the recorded Tensile modulus at 100% for this entry: CCCCOC(=O)C=C(CC(=O)OCCCC)C(=O)OCCCC [Example 29, tributyl aconitate]
Result: 15.4 MPa

Query: Any idea what its Tensile modulus at 100% is? The compound is CCCCOC(=O)C=C(CC(=O)OCCCC)C(=O)OCCCC [Example 33, tributyl aconitate]
Result: 18.2 MPa

Query: Param item = CCCCOC(=O)C=C(CC(=O)OCCCC)C(=O)OCCCC [Comparative Example 2, tributyl aconitate, reference compound] ; retrieve measured Tensile modulus at 100%.
Result: 17.4 MPa

Query: Can you look up the measured Tensile modulus at 100% of CCCCOC(=O)C=C(CC(=O)OCCCC)C(=O)OCCCC [Example 26, tributyl aconitate] for me?
Result: 17.5 MPa

Query: Using the record for CCCCOC(=O)C=C(CC(=O)OCCCC)C(=O)OCCCC [Example 36, tributyl aconitate] , report its Tensile modulus at 100%.
Result: 15.9 MPa

Continuing:
Query: Would you kindly share the measured Tensile modulus at 100% for CCCCOC(=O)C=C(CC(=O)OCCCC)C(=O)OCCCC [Example 25, tributyl aconitate] ?
Result: 17.2 MPa

----------
test: Tensile properties (GB/T 1040-2006): tensile modulus at 100%, elongation at break, elastic modulus; format: physicochemical; settings: PVC plastic with 35 parts plasticizer; 50 mm/min, 25°C
Returns rule met if the recorded Elongation at break is greater than or equal to 200%, and rule not met otherwise.

Examples from the recorded data:
Query: // inclusive: Elongation at break at least 200%? input: CCCCOC(=O)C=C(CC(=O)OCCCC)C(=O)OCCCC [Example 36, tributyl aconitate]
Result: rule met

Query: # bool: Elongation at break of CCCCOC(=O)C=C(CC(=O)OCCCC)C(=O)OCCCC [Example 28, tributyl aconitate] >= 200%
Result: rule met

Query: Quick check, Elongation at break >= 200%? CCCCOC(=O)C=C(CC(=O)OCCCC)C(=O)OCCCC [Example 29, tributyl aconitate]
Result: rule met

Query: # bool: Elongation at break of CCCCOC(=O)C=C(CC(=O)OCCCC)C(=O)OCCCC [Comparative Example 2, tributyl aconitate, reference compound] >= 200%
Result: rule met

Others:
Query: Has CCCCOC(=O)C=C(CC(=O)OCCCC)C(=O)OCCCC [Example 27, tributyl aconitate] a recorded Elongation at break greater than or equal to 200%?
Result: rule met

Query: Check this molecule for Elongation at break at or above 200%: CCCCOC(=O)C=C(CC(=O)OCCCC)C(=O)OCCCC [Example 26, tributyl aconitate]
Result: rule met

Query: Identify whether the reported Elongation at break of the following molecule is 200% or greater: CCCCOC(=O)C=C(CC(=O)OCCCC)C(=O)OCCCC [Example 25, tributyl aconitate]
Result: rule met

Query: Can CCCCOC(=O)C=C(CC(=O)OCCCC)C(=O)OCCCC [Example 34, tributyl aconitate] be said to have Elongation at break at or above 200%?
Result: rule met

Query: Could you tell me if the measured Elongation at break of CCCCOC(=O)C=C(CC(=O)OCCCC)C(=O)OCCCC [Example 19, tributyl aconitate] reaches 200% or more?
Result: rule met

----------
test: Glass transition temperature (dynamic mechanical analyzer); type: physicochemical; conditions: PVC plastic with 35 parts plasticizer; -40 to 80°C, 3°C/min, 1 Hz
Structures can show the parent of a compound that is named as a salt.
property measured: Tg (°C)
Lab book: enter the figure in °C, no units written.

Answered cases to consult:
Query: Could you tell me which Tg is on file for CCCCOC(=O)C=C(CC(=O)OCCCC)C(=O)OCCCC [Comparative Example 1, tributyl aconitate, reference compound] ?
Result: 30.7

Query: Recorded Tg for CCCCOC(=O)C=C(CC(=O)OCCCC)C(=O)OCCCC [Example 36, tributyl aconitate] , please?
Result: 29.7

Query: Consider the compound CCCCOC(=O)C=C(CC(=O)OCCCC)C(=O)OCCCC [Example 30, tributyl aconitate] and give its measured Tg.
Result: 28.9

Query: # input compound: CCCCOC(=O)C=C(CC(=O)OCCCC)C(=O)OCCCC [Comparative Example 2, tributyl aconitate, reference compound] ; wanted: its Tg
Result: 28.4

Query: Tg lookup needed for CCCCOC(=O)C=C(CC(=O)OCCCC)C(=O)OCCCC [Example 32, tributyl aconitate] , thanks.
Result: 28.7

***
Query: Param item = CCCCOC(=O)CC(O)(CC(=O)OCCCC)C(=O)OCCCC [Comparative Example 4, tributyl citrate, reference compound] ; retrieve measured Tg.
Result: 39.7

Query: Given the entry CCCCOC(=O)C=C(CC(=O)OCCCC)C(=O)OCCCC [Example 29, tributyl aconitate] , report its measured Tg.
Result: 28.8

Query: What measured Tg goes with CCCCOC(=O)C=C(CC(=O)OCCCC)C(=O)OCCCC [Example 31, tributyl aconitate] ?
Result: 29.6

Query: Sample CCCCOC(=O)C=C(CC(=O)OCCCC)C(=O)OCCCC [Example 33, tributyl aconitate] — what was its Tg?
Result: 30.8

Query: Need Tg, item CCCCOC(=O)C=C(CC(=O)OCCCC)C(=O)OCCCC [Example 27, tributyl aconitate]
Result: 28.5

Query: Name the reported Tg value associated with the compound CCCCOC(=O)C=C(CC(=O)OCCCC)C(=O)OCCCC [Example 25, tributyl aconitate]
Result: 28.2

Query: I would be grateful if you could share the reported Tg for CCCCOC(=O)C=C(CC(=O)OCCCC)C(=O)OCCCC [Example 35, tributyl aconitate] .
Result: 38.4

----------
test: Tensile properties (GB/T 1040-2006): tensile modulus at 100%, elongation at break, elastic modulus; assay type: physicochemical; conditions: PVC plastic with 35 parts plasticizer; 50 mm/min, 25°C
property measured: Tensile modulus at 100% (MPa)
Lab book: enter the figure in MPa, no units written.

Some entries whose results are on file:
Query: I would be grateful if you could share the reported Tensile modulus at 100% for CCCCOC(=O)C=C(CC(=O)OCCCC)C(=O)OCCCC [Example 27, tributyl aconitate] .
Result: 17.3

Query: Form field: reported Tensile modulus at 100% of CCCCOC(=O)C=C(CC(=O)OCCCC)C(=O)OCCCC [Example 28, tributyl aconitate]
Result: 15.2

Query: Quick one: Tensile modulus at 100% for CCCCOC(=O)C=C(CC(=O)OCCCC)C(=O)OCCCC [Comparative Example 1, tributyl aconitate, reference compound] ?
Result: 17.9

Query: Looking for the measured Tensile modulus at 100% of CCCCOC(=O)C=C(CC(=O)OCCCC)C(=O)OCCCC [Example 35, tributyl aconitate] , can you help?
Result: 19.8

Query: # get_value(readout='Tensile modulus at 100%', item= CCCCOC(=O)C=C(CC(=O)OCCCC)C(=O)OCCCC [Comparative Example 3, tributyl aconitate, reference compound] )
Result: 17.4

Field: next compound
Query: # Tensile modulus at 100% lookup, item CCCCOC(=O)C=C(CC(=O)OCCCC)C(=O)OCCCC [Example 23, tributyl aconitate]
Result: 15.6

----------
experiment: Tensile properties (GB/T 1040-2006): tensile modulus at 100%, elongation at break, elastic modulus; format: physicochemical; details: PVC plastic with 35 parts plasticizer; 50 mm/min, 25°C
# Elongation at break annotations
// return numeric value only (unit: %, not printed)

Would you please look over these solved cases?
Query: What does the record list as Elongation at break for CCCCOC(=O)C=C(CC(=O)OCCCC)C(=O)OCCCC [Example 35, tributyl aconitate] ?
Result: 173.4

Query: Could you share which Elongation at break value was measured for CCCCC(CC)COC(=O)C=C(CC(=O)OCC(CC)CCCC)C(=O)OCC(CC)CCCC (stereo not shown) [Example 20, tri(2-ethylhexyl) aconitate] ?
Result: 181.6

Query: Report Elongation at break for CCCCOC(=O)C=C(CC(=O)OCCCC)C(=O)OCCCC [Example 23, tributyl aconitate] please.
Result: 239.4

Continuing:
Query: Need Elongation at break of CCCCOC(=O)C=C(CC(=O)OCCCC)C(=O)OCCCC [Example 30, tributyl aconitate] , thanks.
Result: 241.7
